experiment-notes: Human PK, multiple ascending dose Study M13-845 Substudy 1
Format: in vivo
applied-conditions: human, in vivo, oral, 6 mg, 6 mg BID, Day 14, mean; read-out: AUC12
value-type: AUC

compound: CC[C@@H]1CN(C(=O)NCC(F)(F)F)C[C@@H]1c1cnc2cnc3[nH]ccc3n12 [Compound 1]
result: 138 ng·h/mL

====

experiment-notes: Human PK, single ascending dose Study M13-401
Assay type: in vivo
applied-conditions: human, in vivo, oral, 24 mg
value-type: AUC(0-t) (ng·h/mL)

compound: CC[C@@H]1CN(C(=O)NCC(F)(F)F)C[C@@H]1c1cnc2cnc3[nH]ccc3n12 [Compound 1]
measurement-units: ng·h/mL
recorded-number: 612

====

experiment-notes: Human PK, single ascending dose Study M13-401
Assay type: in vivo
applied-conditions: human, in vivo; single oral 12 mg, mean ± SD
value-type: AUC(0-t)

smiles-notation: CC[C@@H]1CN(C(=O)NCC(F)(F)F)C[C@@H]1c1cnc2cnc3[nH]ccc3n12
result: 329 ng·h/mL

====

experiment-notes: Human PK in healthy Japanese and Chinese subjects, Study M13-543
Assay type: in vivo
applied-conditions: human, plasma, oral, 18 mg, Japanese, 18 mg BID, Day 14; read-out: Ctrough

smiles-notation: CC[C@@H]1CN(C(=O)NCC(F)(F)F)C[C@@H]1c1cnc2cnc3[nH]ccc3n12
concentration at 14 day (ng/mL): 8.61

====

experiment-notes: Pharmacokinetics in monkey
Format: in vivo
applied-conditions: plasma, oral 1 mg/kg single dose, mean (SD)

smiles-notation: CC[C@@H]1CN(C(=O)NCC(F)(F)F)C[C@@H]1c1cnc2cnc3[nH]ccc3n12
measurement-units: ng·h/mL
AUC(0-inf): 562

====

experiment-notes: Human PK, multiple ascending dose Study M13-845 Substudy 1
Format: in vivo
applied-conditions: human, in vivo, oral, 24 mg, 24 mg BID, Day 14, mean; read-out: AUC12
value-type: AUC (ng·h/mL)

smiles-notation: CC[C@@H]1CN(C(=O)NCC(F)(F)F)C[C@@H]1c1cnc2cnc3[nH]ccc3n12
value-type: AUC
recorded-number: 529

====

experiment-notes: Human PK, single ascending dose Study M13-401
Format: in vivo
applied-conditions: human, in vivo; single oral 48 mg, mean ± SD

compound: CC[C@@H]1CN(C(=O)NCC(F)(F)F)C[C@@H]1c1cnc2cnc3[nH]ccc3n12 [Compound 1]
AUC(0-t) / ng·h/mL: 1030

====

experiment-notes: Pharmacokinetics in monkey
Assay type: in vivo
applied-conditions: plasma, oral 10 mg/kg single dose, mean (SD)

compound: CC[C@@H]1CN(C(=O)NCC(F)(F)F)C[C@@H]1c1cnc2cnc3[nH]ccc3n12 [Compound 1]
Tmax: 4.3 h

====

experiment-notes: Pharmacokinetics in rat
Assay type: in vivo
applied-conditions: plasma; rat, IV 3 mg/kg single dose; read-out: Vss
value-type: Vd

smiles-notation: CC[C@@H]1CN(C(=O)NCC(F)(F)F)C[C@@H]1c1cnc2cnc3[nH]ccc3n12
result: 2.2 L/kg

====

experiment-notes: Human PK, single ascending dose Study M13-401
Assay type: in vivo
applied-conditions: human, in vivo; single oral 36 mg, mean ± SD

molecule: CC[C@@H]1CN(C(=O)NCC(F)(F)F)C[C@@H]1c1cnc2cnc3[nH]ccc3n12 [Compound 1]
AUC(0-t) / ng·h/mL: 909

====

experiment-notes: Pharmacokinetics in rat
Type: in vivo
applied-conditions: male, Sprague-Dawley, rat, plasma, po, 10 mg/kg/day, rat M, oral 10 mg/kg/day, Day 1, mean (SD)

smiles-notation: CC[C@@H]1CN(C(=O)NCC(F)(F)F)C[C@@H]1c1cnc2cnc3[nH]ccc3n12
Cmax [ng/mL]: 224

====

experiment-notes: Pharmacokinetics in monkey
Assay type: in vivo
applied-conditions: plasma, IV 1.0 mg/kg single dose, mean (SD)

compound: CC[C@@H]1CN(C(=O)NCC(F)(F)F)C[C@@H]1c1cnc2cnc3[nH]ccc3n12 [Compound 1]
AUC(0-inf) [ng·h/mL]: 947

====

experiment-notes: Pharmacokinetics in monkey
Assay type: in vivo
applied-conditions: plasma, IV 0.1 mg/kg single dose, read-out: t1/2 (converted)
value-type: half-life

smiles-notation: CC[C@@H]1CN(C(=O)NCC(F)(F)F)C[C@@H]1c1cnc2cnc3[nH]ccc3n12
result: 66 min

====

experiment-notes: Human PK, single ascending dose Study M13-401
Format: in vivo
applied-conditions: human, in vivo; single oral 3 mg, mean ± SD

compound: CC[C@@H]1CN(C(=O)NCC(F)(F)F)C[C@@H]1c1cnc2cnc3[nH]ccc3n12 [Compound 1]
measurement-units: ng·h/mL
AUC(0-t): 102

====

experiment-notes: Human PK, multiple ascending dose Study M13-845 Substudy 1
Type: in vivo
applied-conditions: human, in vivo, oral, 12 mg, 12 mg BID, Day 1, mean; read-out: AUC12
value-type: AUC (ng·h/mL)

molecule: CC[C@@H]1CN(C(=O)NCC(F)(F)F)C[C@@H]1c1cnc2cnc3[nH]ccc3n12 [Compound 1]
recorded-number: 270

====

measured-target: UniProtKB P08183
Sequence (P08183 whole entry): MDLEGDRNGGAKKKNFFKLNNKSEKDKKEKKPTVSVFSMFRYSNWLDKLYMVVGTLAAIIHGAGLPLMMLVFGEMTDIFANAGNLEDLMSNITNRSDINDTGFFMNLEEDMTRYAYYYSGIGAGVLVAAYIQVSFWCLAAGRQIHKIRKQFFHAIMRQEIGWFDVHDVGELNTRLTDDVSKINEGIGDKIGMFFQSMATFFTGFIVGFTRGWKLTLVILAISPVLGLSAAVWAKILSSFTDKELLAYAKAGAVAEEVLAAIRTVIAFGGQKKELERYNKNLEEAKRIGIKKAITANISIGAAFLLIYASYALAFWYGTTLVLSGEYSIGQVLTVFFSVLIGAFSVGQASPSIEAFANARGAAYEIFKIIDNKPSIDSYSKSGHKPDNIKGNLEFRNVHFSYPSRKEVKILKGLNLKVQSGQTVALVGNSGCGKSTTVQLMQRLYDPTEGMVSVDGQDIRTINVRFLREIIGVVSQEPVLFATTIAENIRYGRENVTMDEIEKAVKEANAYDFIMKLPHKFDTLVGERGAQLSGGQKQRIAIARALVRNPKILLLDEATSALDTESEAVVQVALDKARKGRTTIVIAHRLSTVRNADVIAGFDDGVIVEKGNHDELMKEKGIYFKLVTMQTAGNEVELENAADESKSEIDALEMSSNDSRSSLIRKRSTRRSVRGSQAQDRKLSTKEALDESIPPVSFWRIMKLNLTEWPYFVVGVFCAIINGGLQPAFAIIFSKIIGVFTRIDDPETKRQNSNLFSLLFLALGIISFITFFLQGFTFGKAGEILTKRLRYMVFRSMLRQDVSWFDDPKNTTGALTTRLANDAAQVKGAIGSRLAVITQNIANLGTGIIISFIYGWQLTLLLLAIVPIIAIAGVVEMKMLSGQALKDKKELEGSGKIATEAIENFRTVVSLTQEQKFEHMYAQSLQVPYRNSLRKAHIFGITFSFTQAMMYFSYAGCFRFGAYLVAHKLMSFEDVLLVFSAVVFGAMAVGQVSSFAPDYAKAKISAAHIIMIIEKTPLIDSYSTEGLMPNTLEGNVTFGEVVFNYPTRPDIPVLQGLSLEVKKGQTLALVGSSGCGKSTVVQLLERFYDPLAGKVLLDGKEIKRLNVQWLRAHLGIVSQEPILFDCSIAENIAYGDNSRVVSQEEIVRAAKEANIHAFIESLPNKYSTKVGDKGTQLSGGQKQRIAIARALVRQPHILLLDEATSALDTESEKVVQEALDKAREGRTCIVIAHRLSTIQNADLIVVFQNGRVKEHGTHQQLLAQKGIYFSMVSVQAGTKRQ
pIC50: −log10 of the molar value.

compound: CC[C@@H]1CN(C(=O)NCC(F)(F)F)C[C@@H]1c1cnc2cnc3[nH]ccc3n12 [Compound 1]
pIC50: 3.46

====

experiment-notes: Pharmacokinetics in rat
Format: in vivo
applied-conditions: female, Sprague-Dawley, plasma; rat F, oral 100 mg/kg/day, Day 1, mean (SD)
value-type: AUC (ng·h/mL)

smiles-notation: CC[C@@H]1CN(C(=O)NCC(F)(F)F)C[C@@H]1c1cnc2cnc3[nH]ccc3n12
recorded-number: 54100

====

experiment-notes: Pharmacokinetics in rat
Type: in vivo
applied-conditions: plasma; rat, IV 0.3 mg/kg single dose, mean (SD); read-out: CLp (converted)

compound: CC[C@@H]1CN(C(=O)NCC(F)(F)F)C[C@@H]1c1cnc2cnc3[nH]ccc3n12 [Compound 1]
measurement-units: mL/min/kg
clearance: 63.3

====

experiment-notes: Pharmacokinetics in rat
Assay type: in vivo
applied-conditions: male, Sprague-Dawley, rat, plasma, po, 100 mg/kg/day, rat M, oral 100 mg/kg/day, Day 29, mean (SD)

smiles-notation: CC[C@@H]1CN(C(=O)NCC(F)(F)F)C[C@@H]1c1cnc2cnc3[nH]ccc3n12
measurement-units: h
Tmax at 29 days: 3.2

====

experiment-notes: Plasma protein binding, human
Format: in vitro ADME
value-type: fraction unbound

molecule: CC[C@@H]1CN(C(=O)NCC(F)(F)F)C[C@@H]1c1cnc2cnc3[nH]ccc3n12 [Compound 1]
value-type: fraction unbound
recorded-number: 0.53

====

experiment-notes: in vivo
applied-conditions: dog, iv, 1 mg/kg
value-type: clearance (mL/min/kg)

smiles-notation: CC[C@@H]1CN(C(=O)NCC(F)(F)F)C[C@@H]1c1cnc2cnc3[nH]ccc3n12
value-type: clearance
recorded-number: 11

====

experiment-notes: Pharmacokinetics in monkey
Type: in vivo
applied-conditions: plasma, oral 10 mg/kg single dose, mean (SD)
value-type: Cmax (ng/mL)

molecule: CC[C@@H]1CN(C(=O)NCC(F)(F)F)C[C@@H]1c1cnc2cnc3[nH]ccc3n12 [Compound 1]
value-type: Cmax
recorded-number: 960

====

experiment-notes: Pharmacokinetics in rat
Assay type: in vivo
applied-conditions: male, Sprague-Dawley, rat, plasma, po, 10 mg/kg/day, rat M, oral 10 mg/kg/day, Day 1, mean (SD)

molecule: CC[C@@H]1CN(C(=O)NCC(F)(F)F)C[C@@H]1c1cnc2cnc3[nH]ccc3n12 [Compound 1]
measurement-units: h
Tmax: 2.2

====

experiment-notes: Human PK, multiple ascending dose Study M13-845 Substudy 1
Format: in vivo
applied-conditions: human, in vivo, oral, 24 mg, 24 mg BID, Day 1, mean; read-out: AUC12

compound: CC[C@@H]1CN(C(=O)NCC(F)(F)F)C[C@@H]1c1cnc2cnc3[nH]ccc3n12 [Compound 1]
AUC / ng·h/mL: 540

====

experiment-notes: Human PK in healthy Japanese and Chinese subjects, Study M13-543
Assay type: in vivo
applied-conditions: human, plasma, oral, 18 mg, Japanese, 18 mg BID, Day 14, harmonic mean (pseudo % CV); read-out: t1/2 (converted)
Description: Two additional subjects were assigned to each dose level as placebo control.

smiles-notation: CC[C@@H]1CN(C(=O)NCC(F)(F)F)C[C@@H]1c1cnc2cnc3[nH]ccc3n12
measurement-units: h
half-life: 9.51

====

experiment-notes: Human PK, multiple ascending dose Study M13-845 Substudy 1
Type: in vivo
applied-conditions: human, in vivo, oral, 3 mg, 3 mg BID, Day 1, mean; read-out: AUC12

smiles-notation: CC[C@@H]1CN(C(=O)NCC(F)(F)F)C[C@@H]1c1cnc2cnc3[nH]ccc3n12
AUC: 75.3 ng·h/mL

====

experiment-notes: Metabolic stability in liver microsomes, rat
Type: in vitro ADME
applied-conditions: read-out: intrinsic clearance in liver microsomes (scaled) (converted)

compound: CC[C@@H]1CN(C(=O)NCC(F)(F)F)C[C@@H]1c1cnc2cnc3[nH]ccc3n12 [Compound 1]
CLint scaled at 0.5 μM, mL/min/kg: 84.7
